All values here come from patent US20190233522A1.

# Test system: LCLC-103H xenograft tumors
# protocol text: Therapeutic treatment of SC LCLC-103H tumor xenografts (Example 3)
# Type: in vivo, SCID mice
# condition set: day 30, One Way ANOVA (Dunnett's), 1 mg/kg single i.p.

molecule	tumor volume versus control IgG1-b12
IgG1-AXL-726-M101L-vcMMAE: anti-AXL antibody 726-M101L (VH SEQ ID No 32, VL SEQ ID No 33) conjugated to vcMMAE (conjugate, vc-MMAE conjugate; homo sapiens) VH: QVQLQQWGAGLLKPSETLSLTCAIDGGSFSGYYWSWIRQPPGKGLEWIGEISHSGRTNYNPSLKSRVTISIDTSKNQFSLKLSSVAAADTAVYYCARFITLIRGAIITHFDYWGQGALVTVSS VL: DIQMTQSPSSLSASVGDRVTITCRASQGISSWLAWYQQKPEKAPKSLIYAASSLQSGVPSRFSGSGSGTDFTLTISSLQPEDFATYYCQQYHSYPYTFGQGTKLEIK	not significant affected
IgG1-AXL-183-N52Q-vcMMAE: anti-AXL antibody 183-N52Q (VH SEQ ID No 17, VL SEQ ID No 18) conjugated to vcMMAE (conjugate, vc-MMAE conjugate; homo sapiens) VH: QVQLQQWGAGLLKPSETLSLTCAVYGGSFSGYYWSWIRQPPGKGLEWIGEIQQSGSTNYNPSLKSRVTISVDTSKNQFSLKLSSVTAADTSVYYCASGNWDHFFDYWGQGTLVTVSS VL: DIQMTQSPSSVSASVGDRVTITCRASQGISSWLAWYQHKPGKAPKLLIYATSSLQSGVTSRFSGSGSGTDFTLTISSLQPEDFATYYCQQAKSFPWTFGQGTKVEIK	not significant affected
